system: Mus musculus; assay: Anticonvulsant activity in mice(induced by maximal electroshock )after 0.25 hr of administration, for Phase-II screening; type: functional
endpoint: ED50 (mg/kg)

[[record]]
compound = "O=C1NCCCCC1(O)c1ccccc1 (centres undefined)"
unit_abbrev = "mg/kg"
measurement = 63

[[record]]
compound = "NC(=O)N1c2ccccc2C=Cc2ccccc21 [CARBAMAZEPINE]"
unit_abbrev = "mg/kg"
measurement = 9

[[record]]
compound = "O=C1NCCCCCC1(O)c1ccccc1 (centres undefined)"
unit_abbrev = "mg/kg"
measurement = 80

[[record]]
compound = "CCOC(=O)N1CCCCC(O)(c2ccccc2)C1=O (centres undefined)"
unit_abbrev = "mg/kg"
measurement = 84


---

Property: ED50; scope: individual compounds
tested on: Mus musculus; assay: Anticonvulsant activity in mice, (induced by subcutaneous administration of Metrazol.) after 0.5 hr of administration, for Phase-II screening; format: functional; conditions: sc
endpoint: ED50 (mg/kg)

[[record]]
compound = "CN1CCCC(O)(c2ccccc2)C1=O (stereo not given)"
unit_abbrev = "mg/kg"
measurement = 128

[[record]]
compound = "CCOC(=O)N1CCCC(OC)(c2ccccc2)C1=O (stereo not given)"
unit_abbrev = "mg/kg"
measurement = 124

[[record]]
compound = "CCC1(c2ccccc2)OC(=O)NC1=O (stereo not given)"
unit_abbrev = "mg/kg"
measurement = 39

[[record]]
compound = "COC1(c2ccccc2)CCCNC1=O (stereo not given)"
unit_abbrev = "mg/kg"
measurement = 50

[[record]]
compound = "CCC1(c2ccccc2)OC(=O)N(C)C1=O (stereo not given)"
unit_abbrev = "mg/kg"
measurement = 45


---

tested on: Mus musculus; assay: Anticonvulsant activity in mice(induced by maximal electroshock )after 0.5 hr of administration, for Phase-II screening; format: functional
endpoint: ED50 (mg/kg)

[[record]]
compound = "CCC1(c2ccccc2)OC(=O)N(C)C1=O (centres undefined)"
measurement = 124

[[record]]
compound = "CN1CCCC(O)(c2ccccc2)C1=O (centres undefined)"
measurement = 84

[[record]]
compound = "CCOC(=O)N1CCCC(OC)(c2ccccc2)C1=O (centres undefined)"
measurement = 225

[[record]]
compound = "COC1(c2ccccc2)CCCNC1=O (centres undefined)"
measurement = 120


---

experiment: Rotarod toxicity test for the compound in Phase-II screening was determined; type: organism-based; details: mouse, in vivo
endpoint: TD50

[[record]]
compound = "CCOC(=O)N1CCCC(OC)(c2ccccc2)C1=O (stereo not given)"
measurement = "> 300 mg/kg"

[[record]]
compound = "COC1(c2ccccc2)CCCNC1=O (stereo not given)"
measurement = "239 mg/kg"

[[record]]
compound = "CCOC(=O)N1CCCCC(O)(c2ccccc2)C1=O (stereo not given)"
measurement = "216 mg/kg"

[[record]]
compound = "CN1C(=O)OC(C)(C)C1=O"
measurement = "819 mg/kg"

[[record]]
compound = "CCC1(c2ccccc2)OC(=O)N(C)C1=O (stereo not given)"
measurement = "504 mg/kg"

[[record]]
compound = "O=C1NCCCCCC1(O)c1ccccc1 (stereo not given)"
measurement = "199 mg/kg"

[[record]]
compound = "O=C1O[C@]2(c3ccccc3)CCCCCN1C2=O"
measurement = "147 mg/kg"

[[record]]
compound = "O=C1NCCCCC1(O)c1ccccc1 (stereo not given)"
measurement = "210 mg/kg"

[[record]]
compound = "CCC1(c2ccccc2)OC(=O)NC1=O (stereo not given)"
measurement = "164 mg/kg"

[[record]]
compound = "CN1CCCC(O)(c2ccccc2)C1=O (stereo not given)"
measurement = "~350 mg/kg"

